# MEASURED ON: NHE3 (Homo sapiens)
# Construct: expressed in transfected cells
# Sequence (P48764 26-834): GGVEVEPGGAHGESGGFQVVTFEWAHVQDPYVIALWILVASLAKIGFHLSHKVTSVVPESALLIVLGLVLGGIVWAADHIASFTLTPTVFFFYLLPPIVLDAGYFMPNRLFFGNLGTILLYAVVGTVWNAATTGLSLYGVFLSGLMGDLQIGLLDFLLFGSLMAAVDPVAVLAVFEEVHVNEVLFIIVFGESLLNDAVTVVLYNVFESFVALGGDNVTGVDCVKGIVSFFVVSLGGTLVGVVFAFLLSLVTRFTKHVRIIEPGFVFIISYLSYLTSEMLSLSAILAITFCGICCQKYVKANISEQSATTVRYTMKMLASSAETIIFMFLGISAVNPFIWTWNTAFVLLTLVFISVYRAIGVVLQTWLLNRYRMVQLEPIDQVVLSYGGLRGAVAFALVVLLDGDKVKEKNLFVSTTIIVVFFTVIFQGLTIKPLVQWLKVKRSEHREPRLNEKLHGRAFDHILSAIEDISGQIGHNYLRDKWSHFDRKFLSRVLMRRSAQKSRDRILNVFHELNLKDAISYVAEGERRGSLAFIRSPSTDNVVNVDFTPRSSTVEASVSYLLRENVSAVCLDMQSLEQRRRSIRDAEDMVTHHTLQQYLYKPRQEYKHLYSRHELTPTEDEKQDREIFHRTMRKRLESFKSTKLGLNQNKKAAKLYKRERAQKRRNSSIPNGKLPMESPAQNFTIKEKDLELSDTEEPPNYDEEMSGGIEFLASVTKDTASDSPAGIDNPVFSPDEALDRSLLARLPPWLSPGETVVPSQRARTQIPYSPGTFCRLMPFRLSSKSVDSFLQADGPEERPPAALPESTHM
# Sequence (Q99653 2-195 partner limits assumed): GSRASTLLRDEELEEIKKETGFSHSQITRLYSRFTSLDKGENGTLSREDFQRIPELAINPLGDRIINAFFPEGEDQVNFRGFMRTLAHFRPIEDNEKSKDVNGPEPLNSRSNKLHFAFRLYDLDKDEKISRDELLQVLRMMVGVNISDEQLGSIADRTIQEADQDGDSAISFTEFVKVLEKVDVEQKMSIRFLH
# EXPERIMENT: persistent inhibition of NHE3 in the cell-based assay of example 181 (4-chloro vs 4-cyano pairs)
# TEST CONDITIONS: cell-based assay of example 181, persistent

# COMPOUND SMILES, MEASURED ON, READOUT UNIT, Percent Inhibition
measured = [
    ("N#Cc1cc(Cl)cc2c1C[C@H](N1CCNCC1)[C@H]2Oc1ccc(S(=O)(=O)NCCOCCOCCNC(=O)NCCCCNC(=O)NCCOCCOCCNS(=O)(=O)c2ccc(O[C@H]3c4cc(Cl)cc(C#N)c4C[C@@H]3N3CCNCC3)c(F)c2)cc1F", "NHE3 (Homo sapiens)", "%", 74),
    ("O=C(NCCCCNC(=O)NCCOCCOCCNS(=O)(=O)c1ccc(O[C@H]2c3cc(Cl)cc(Cl)c3C[C@@H]2N2CCNCC2)cc1)NCCOCCOCCNS(=O)(=O)c1ccc(O[C@H]2c3cc(Cl)cc(Cl)c3C[C@@H]2N2CCNCC2)cc1", "NHE3 (Homo sapiens)", "%", 82),
    ("N#Cc1cc(Cl)cc2c1C[C@H](N1CCNCC1)[C@H]2Oc1ccc(S(=O)(=O)N[C@H]2CCN(CCOCCNC(=O)NCCCCNC(=O)NCCOCCN3CC[C@H](NS(=O)(=O)c4ccc(O[C@H]5c6cc(Cl)cc(C#N)c6C[C@@H]5N5CCNCC5)c(F)c4)C3)C2)cc1F", "NHE3 (Homo sapiens)", "%", 106),
    ("O=C(NCCCCNC(=O)NCCOCCN1CC[C@H](NS(=O)(=O)c2ccc(O[C@H]3c4cc(Cl)cc(Cl)c4C[C@@H]3N3CCNCC3)c(F)c2)C1)NCCOCCN1CC[C@H](NS(=O)(=O)c2ccc(O[C@H]3c4cc(Cl)cc(Cl)c4C[C@@H]3N3CCNCC3)c(F)c2)C1", "NHE3 (Homo sapiens)", "%", 90),
]
